assay: Inhibition of IGFR
Reported log10 Ki values are given for each entry in this list.
OBSERVABLE: log10 Ki (log10 of the value in µM)

structure_notation=COc1cc2c(Oc3ccc(-c4cnc(Nc5ccc(F)cc5)n(C)c4=O)cc3F)ccnc2cc1OCCCN1CCOCC1 data_value=-1.66
structure_notation=COc1cc2c(Oc3ccc(-c4cnc(Cc5ccc(F)cc5)n(C)c4=O)cc3F)ccnc2cc1OCCCN1CCOCC1 data_value=-0.07
structure_notation=COc1cc2c(Oc3ccc(-c4cnc(Cc5ccccc5)n(C)c4=O)cc3F)ccnc2cc1OCCCN1CCOCC1 data_value=0.16
structure_notation=COc1cc2nccc(Oc3ccc(-c4cnc(Nc5ccc(F)cc5)n(C)c4=O)cc3F)c2cc1OC data_value=-1.15
structure_notation=COc1cc2nccc(Oc3ccc(-c4cnc(Cc5ccccc5)n(C)c4=O)cc3F)c2cc1OC data_value=0.01
structure_notation=COc1cc2c(Oc3ccc(-c4cnc(Nc5ccc(F)cc5)n(C)c4=O)nc3)ccnc2cc1OCCCN1CCOCC1 data_value=-1.29

====

# clearance values compiled below
assay: Clearance in iv dosed rat; assay type: ADME, organism-based; conditions: in vivo
OBSERVABLE: clearance (mL/min/kg)

structure_notation=COc1cc2c(Oc3ccc(-c4cnc(Cc5ccccc5)n(C)c4=O)cc3F)ccnc2cc1OCCCN1CCOCC1 observable=clearance data_value=9.33
structure_notation=COc1cc2c(Oc3ccc(-c4cnc(Nc5ccc(F)cc5)n(C)c4=O)nc3)ccnc2cc1OCCCN1CCOCC1 observable=clearance data_value=9.33
structure_notation=COc1cc2c(Oc3ccc(-c4cnc(Nc5ccc(F)cc5)n(C)c4=O)cc3F)ccnc2cc1OCCCN1CCOCC1 observable=clearance data_value=9.33

====

target: Serine/threonine-protein kinase pim-2 (Homo sapiens)
Sequence (Q9P1W9 whole entry): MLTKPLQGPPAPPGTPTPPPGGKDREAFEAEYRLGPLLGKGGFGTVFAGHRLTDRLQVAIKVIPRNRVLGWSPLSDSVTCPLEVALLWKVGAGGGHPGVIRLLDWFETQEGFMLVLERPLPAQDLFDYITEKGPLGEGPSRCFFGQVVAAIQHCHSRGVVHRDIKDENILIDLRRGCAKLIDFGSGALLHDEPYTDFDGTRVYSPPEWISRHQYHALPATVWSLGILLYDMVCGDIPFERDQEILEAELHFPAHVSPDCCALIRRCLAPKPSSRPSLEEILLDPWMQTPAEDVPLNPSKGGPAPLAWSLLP
pIC50: −log10 of the molar value.
OBSERVABLE: pIC50

structure_notation=COc1cc2c(Oc3ccc(-c4cnc(Nc5ccc(F)cc5)n(C)c4=O)nc3)ccnc2cc1OCCCN1CCOCC1 tested_on="Serine/threonine-protein kinase pim-2 (Homo sapiens)" data_value="< 4.60"

====

biological target: Vascular endothelial growth factor receptor 2 (Homo sapiens, UniProt P35968)
Sequence (P35968 whole entry): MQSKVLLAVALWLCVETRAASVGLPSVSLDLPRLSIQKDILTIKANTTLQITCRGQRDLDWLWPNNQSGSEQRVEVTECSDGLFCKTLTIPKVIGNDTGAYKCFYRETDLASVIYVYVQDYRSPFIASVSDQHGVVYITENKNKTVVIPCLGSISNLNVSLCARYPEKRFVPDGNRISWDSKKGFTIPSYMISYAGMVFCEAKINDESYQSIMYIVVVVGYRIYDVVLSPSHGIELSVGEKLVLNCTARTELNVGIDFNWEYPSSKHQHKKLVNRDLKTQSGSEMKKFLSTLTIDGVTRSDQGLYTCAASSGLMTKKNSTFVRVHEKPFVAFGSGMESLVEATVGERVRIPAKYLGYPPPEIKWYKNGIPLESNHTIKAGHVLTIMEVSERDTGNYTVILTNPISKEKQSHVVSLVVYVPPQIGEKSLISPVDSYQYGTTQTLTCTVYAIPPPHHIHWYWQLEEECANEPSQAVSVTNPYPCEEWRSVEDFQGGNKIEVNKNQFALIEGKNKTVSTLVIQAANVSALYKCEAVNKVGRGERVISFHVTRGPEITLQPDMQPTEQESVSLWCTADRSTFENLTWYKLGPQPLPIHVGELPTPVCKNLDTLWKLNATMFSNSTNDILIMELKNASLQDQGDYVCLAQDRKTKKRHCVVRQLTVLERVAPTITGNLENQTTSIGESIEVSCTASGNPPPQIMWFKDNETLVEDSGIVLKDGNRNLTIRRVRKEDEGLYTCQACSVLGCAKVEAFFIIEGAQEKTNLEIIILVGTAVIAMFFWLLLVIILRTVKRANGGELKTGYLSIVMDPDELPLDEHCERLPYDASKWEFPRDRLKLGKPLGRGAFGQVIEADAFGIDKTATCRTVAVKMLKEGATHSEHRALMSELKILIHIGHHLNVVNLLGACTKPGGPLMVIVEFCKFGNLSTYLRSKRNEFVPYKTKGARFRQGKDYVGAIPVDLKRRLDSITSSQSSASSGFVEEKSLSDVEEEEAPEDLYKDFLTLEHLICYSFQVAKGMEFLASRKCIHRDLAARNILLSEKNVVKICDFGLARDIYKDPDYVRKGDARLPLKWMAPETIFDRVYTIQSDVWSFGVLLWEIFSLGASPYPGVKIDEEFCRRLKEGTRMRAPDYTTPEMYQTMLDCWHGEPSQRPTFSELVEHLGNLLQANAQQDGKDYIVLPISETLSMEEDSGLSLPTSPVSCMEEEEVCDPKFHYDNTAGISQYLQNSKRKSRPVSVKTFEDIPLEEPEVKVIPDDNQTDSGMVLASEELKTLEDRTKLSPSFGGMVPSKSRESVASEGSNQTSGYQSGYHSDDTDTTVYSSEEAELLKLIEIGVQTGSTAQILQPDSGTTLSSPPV
pKi: −log10 of the molar value.
OBSERVABLE: pKi

structure_notation=COc1cc2c(Oc3ccc(-c4cnc(Nc5ccc(F)cc5)n(C)c4=O)nc3)ccnc2cc1OCCCN1CCOCC1 observable=pKi data_value=7.08

====

pIC50: −log10 of the molar value.
Read-out record for Tyrosine-protein kinase BTK (Homo sapiens): pIC50
OBSERVABLE: pIC50

structure_notation=COc1cc2c(Oc3ccc(-c4cnc(Nc5ccc(F)cc5)n(C)c4=O)nc3)ccnc2cc1OCCCN1CCOCC1 observable=pIC50 data_value=6.90
structure_notation=COc1cc2c(Oc3ccc(-c4cnc(Nc5ccc(F)cc5)n(C)c4=O)cc3F)ccnc2cc1OCCCN1CCOCC1 observable=pIC50 data_value=7.57

====

molecular target: Vascular endothelial growth factor receptor 3 (Homo sapiens)
Sequence (P35916 whole entry): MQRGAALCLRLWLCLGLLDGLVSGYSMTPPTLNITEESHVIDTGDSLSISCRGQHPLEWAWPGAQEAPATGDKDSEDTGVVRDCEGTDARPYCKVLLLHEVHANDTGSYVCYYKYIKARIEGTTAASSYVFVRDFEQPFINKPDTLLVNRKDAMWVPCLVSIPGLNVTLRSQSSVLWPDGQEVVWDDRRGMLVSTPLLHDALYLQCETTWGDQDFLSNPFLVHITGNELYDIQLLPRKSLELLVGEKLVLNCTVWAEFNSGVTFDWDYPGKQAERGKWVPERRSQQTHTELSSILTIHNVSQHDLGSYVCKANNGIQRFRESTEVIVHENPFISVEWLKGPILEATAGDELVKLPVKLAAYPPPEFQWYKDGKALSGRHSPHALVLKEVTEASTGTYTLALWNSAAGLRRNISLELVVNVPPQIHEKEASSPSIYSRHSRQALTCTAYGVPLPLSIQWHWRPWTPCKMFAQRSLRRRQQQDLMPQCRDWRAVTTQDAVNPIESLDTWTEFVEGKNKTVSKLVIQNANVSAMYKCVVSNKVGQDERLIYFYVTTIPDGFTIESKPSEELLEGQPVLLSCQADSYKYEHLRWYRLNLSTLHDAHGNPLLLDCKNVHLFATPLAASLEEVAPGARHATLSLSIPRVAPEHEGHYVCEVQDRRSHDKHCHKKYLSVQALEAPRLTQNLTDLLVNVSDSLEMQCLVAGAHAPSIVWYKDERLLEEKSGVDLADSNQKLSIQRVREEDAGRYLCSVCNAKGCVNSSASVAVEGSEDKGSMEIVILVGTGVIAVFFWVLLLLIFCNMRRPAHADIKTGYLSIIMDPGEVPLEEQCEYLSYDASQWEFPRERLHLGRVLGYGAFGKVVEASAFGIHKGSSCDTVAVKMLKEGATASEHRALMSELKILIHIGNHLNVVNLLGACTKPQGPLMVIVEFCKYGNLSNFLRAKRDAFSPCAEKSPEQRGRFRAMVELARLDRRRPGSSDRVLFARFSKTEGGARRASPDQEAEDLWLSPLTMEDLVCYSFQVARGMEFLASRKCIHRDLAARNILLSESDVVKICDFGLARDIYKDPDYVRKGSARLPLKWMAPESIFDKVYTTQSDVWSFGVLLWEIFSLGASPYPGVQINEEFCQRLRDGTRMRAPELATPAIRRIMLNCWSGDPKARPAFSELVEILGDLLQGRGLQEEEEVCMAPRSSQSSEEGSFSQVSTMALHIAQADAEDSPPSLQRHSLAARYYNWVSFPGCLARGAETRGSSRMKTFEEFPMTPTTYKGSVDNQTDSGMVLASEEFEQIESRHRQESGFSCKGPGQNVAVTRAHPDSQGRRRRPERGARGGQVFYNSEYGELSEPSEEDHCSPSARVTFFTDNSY
pIC50: −log10 of the molar value.
OBSERVABLE: pIC50

structure_notation=COc1cc2c(Oc3ccc(-c4cnc(Nc5ccc(F)cc5)n(C)c4=O)cc3F)ccnc2cc1OCCCN1CCOCC1 data_value=8.30

====

biological target: Tyrosine-protein kinase JAK3 (Homo sapiens)
Sequence (P52333 whole entry): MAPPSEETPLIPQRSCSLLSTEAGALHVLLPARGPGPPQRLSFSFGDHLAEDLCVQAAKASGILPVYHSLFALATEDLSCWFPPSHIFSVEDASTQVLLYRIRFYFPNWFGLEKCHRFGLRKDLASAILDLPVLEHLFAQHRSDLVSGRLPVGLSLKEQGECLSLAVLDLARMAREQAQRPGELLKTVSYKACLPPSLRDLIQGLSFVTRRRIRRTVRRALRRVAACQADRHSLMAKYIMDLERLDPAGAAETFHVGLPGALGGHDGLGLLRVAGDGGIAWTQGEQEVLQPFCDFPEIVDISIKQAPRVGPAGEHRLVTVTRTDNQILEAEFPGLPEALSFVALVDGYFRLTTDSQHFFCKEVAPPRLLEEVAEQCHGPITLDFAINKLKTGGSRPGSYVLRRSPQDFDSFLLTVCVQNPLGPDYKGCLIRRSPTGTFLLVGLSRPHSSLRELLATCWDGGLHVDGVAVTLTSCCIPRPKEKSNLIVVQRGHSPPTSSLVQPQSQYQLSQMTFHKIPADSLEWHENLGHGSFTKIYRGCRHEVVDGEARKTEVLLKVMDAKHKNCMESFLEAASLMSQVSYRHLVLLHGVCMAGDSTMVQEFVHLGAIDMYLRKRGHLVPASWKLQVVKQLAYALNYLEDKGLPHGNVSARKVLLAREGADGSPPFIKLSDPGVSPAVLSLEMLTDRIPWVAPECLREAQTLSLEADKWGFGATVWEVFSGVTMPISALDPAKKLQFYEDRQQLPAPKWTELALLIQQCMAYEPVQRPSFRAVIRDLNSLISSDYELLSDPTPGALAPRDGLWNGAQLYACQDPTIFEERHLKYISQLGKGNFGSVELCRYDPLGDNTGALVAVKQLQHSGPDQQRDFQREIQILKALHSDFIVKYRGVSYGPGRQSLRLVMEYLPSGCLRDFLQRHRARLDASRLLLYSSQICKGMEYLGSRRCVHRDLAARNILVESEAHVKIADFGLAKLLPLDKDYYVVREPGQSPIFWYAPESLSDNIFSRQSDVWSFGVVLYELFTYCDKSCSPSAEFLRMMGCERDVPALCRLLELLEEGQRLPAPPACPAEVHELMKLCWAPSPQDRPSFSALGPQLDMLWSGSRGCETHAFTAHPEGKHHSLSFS
OBSERVABLE: IC50

structure_notation=COc1cc2c(Oc3ccc(-c4cnc(Nc5ccc(F)cc5)n(C)c4=O)cc3F)ccnc2cc1OCCCN1CCOCC1 data_value="> 1000 nM"
